Molecular target: NLRP3 (Homo sapiens, UniProt Q96P20)
Sequence (Q96P20 whole entry): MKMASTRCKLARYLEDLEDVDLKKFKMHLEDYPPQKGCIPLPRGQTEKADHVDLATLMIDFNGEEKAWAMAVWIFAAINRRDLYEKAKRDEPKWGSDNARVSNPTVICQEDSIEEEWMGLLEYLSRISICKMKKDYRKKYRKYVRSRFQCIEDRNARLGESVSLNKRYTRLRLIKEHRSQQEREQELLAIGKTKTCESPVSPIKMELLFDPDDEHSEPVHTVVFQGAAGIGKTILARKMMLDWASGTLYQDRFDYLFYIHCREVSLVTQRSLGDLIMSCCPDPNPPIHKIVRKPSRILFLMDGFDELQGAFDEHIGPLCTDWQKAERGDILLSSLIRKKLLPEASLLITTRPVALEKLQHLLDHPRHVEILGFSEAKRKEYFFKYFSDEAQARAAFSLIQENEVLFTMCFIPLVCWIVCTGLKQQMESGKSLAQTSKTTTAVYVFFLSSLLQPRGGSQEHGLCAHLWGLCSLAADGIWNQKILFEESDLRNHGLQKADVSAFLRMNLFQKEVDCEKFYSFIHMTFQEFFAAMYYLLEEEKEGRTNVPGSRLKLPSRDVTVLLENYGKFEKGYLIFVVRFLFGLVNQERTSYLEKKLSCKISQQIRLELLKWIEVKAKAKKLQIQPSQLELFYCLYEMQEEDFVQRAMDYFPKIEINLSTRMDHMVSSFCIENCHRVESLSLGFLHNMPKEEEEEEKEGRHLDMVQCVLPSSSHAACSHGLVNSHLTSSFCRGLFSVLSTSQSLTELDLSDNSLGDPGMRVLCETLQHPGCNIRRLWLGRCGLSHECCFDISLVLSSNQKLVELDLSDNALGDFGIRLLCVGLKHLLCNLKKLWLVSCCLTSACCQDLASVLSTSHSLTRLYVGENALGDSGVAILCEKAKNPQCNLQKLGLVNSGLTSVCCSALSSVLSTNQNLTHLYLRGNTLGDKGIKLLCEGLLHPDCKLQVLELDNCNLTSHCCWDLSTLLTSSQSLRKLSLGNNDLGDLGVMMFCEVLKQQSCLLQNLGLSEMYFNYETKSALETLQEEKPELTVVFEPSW
Test: THP-1 cells pyroptosis assay
Assay type: cell-based
Parameters: Seed THP-1 cells (25,000 cells/well) containing 1.0 μg/ml LPS; host or cells: THP-1
Details: LPS 1.0 μg/ml, nigericin 5 μM, resazurin readout, 10 μM top dose (Example 2: top dose of 30 μM)
MEASURED_PROPERTY: IC50

Here's what some known entries look like.
> print(dat)
                                   compound  reported.result
1  O=S(=O)(c1cccc(OC(F)(F)F)c1)c1nnc(Nc2c3c(cc4c2CCC4)CCC3)[nH]1 [Example 367]           ≤ 5 µM
2  O=S(=O)(c1nnc(Nc2c3c(cc4c2CCC4)CCC3)[nH]1)C1CCCC1 [Example 64]           ≤ 5 µM

Please state, for each entry, its recorded IC50.
1. O=S(=O)(c1nnc(Nc2c3c(cc4c2CCC4)CCC3)[nH]1)N1CC[C@H](CNC2CC2)C1 [Example 307]
2. CN1CC2CCN(S(=O)(=O)c3nnc(Nc4c5c(cc6c4CCC6)CCC5)[nH]3)C2C1 (stereo not shown) [Example 142]

Reply:
["≤ 1 µM", "≤ 5 µM"]

* * *

Test: PK, intravenous administration
Format: in vivo
Settings: rat, plasma, male Sprague Dawley rats, dose about 1 mg/kg
Task for the reader: assign each of the following molecules its reported half-life.

Study these solved cases before continuing.
> print(dat)
                                   molecule  reported.result
1  COc1cc(-c2cc(F)cc(C(C)C)c2Nc2nnc(S(=O)(=O)N3CCC(CN(C)C)C3)[nH]2)ccn1 (stereo not shown) [Example 259]           2.23 h
2  CN1CCC2(C1)CN(S(=O)(=O)c1nnc(Nc3c(-c4ccnc(OC(F)F)c4)ccc4c3CCC4)[nH]1)C2 [Example 213]           0.73 h
3  O=S(=O)(c1nnc(Nc2c3c(cc4c2CCC4)CCC3)[nH]1)N1CCC2(CCCN2)CC1 [Example 268]           2.52 h

Now let's try a different one.
Memo: O=S(=O)(c1nnc(Nc2c3c(cc4c2CCC4)CCC3)[nH]1)N1CC2(CCN(C3CC3)C2)C1 [Example 245] , reported half-life: 0.74 h

* * *

Experiment: PK, intravenous administration
Format: in vivo
Conditions: rat, plasma, male Sprague Dawley rats, dose about 1 mg/kg
Procedure: Pharmacokinetic parameters were determined in male Sprague Dawley rats (Vital River Laboratory Animal Technology Co Ltd, Beijing, China, 6-9 weeks old). Animals were maintained under a 12 h light/dark cycle. Animals had free access to food and water, except that orally dosed animals were food deprived overnight prior to the study. […]
Kind request: treat 1 h as inclusive, so half-life at 1 h or higher is condition met, anything lower is condition not met.

> print(dat)
                                   compound              group
1  CN1CCCC12CCN(S(=O)(=O)c1nnc(Nc3c4c(cc5c3CCC5)CCC4)[nH]1)CC2      condition met
2  Cn1ccc(S(=O)(=O)c2nnc(Nc3c4c(cc5c3CCC5)CCC4)[nH]2)n1  condition not met
3  CN1CCC12CCN(S(=O)(=O)c1nnc(Nc3c4c(cc5c3CCC5)CCC4)[nH]1)CC2      condition met

Ask: Test whether the compound "COc1cc(-c2ccc3c(c2Nc2nnc(S(=O)(=O)N4CC5(CCN(C)C5)C4)[nH]2)CCC3)ccn1" records half-life of 1 h or higher.
Reply: condition not met

Ask: Reported half-life reaches at least 1 h for "CN(C)CCNS(=O)(=O)c1nnc(Nc2c3c(cc4c2CCC4)CCC3)[nH]1" ?
Reply: condition met

These data points were gathered from patent US20210261512A1.
